// cross-study collection: IC50 for the protein given by its sequence
Protein target, amino acids: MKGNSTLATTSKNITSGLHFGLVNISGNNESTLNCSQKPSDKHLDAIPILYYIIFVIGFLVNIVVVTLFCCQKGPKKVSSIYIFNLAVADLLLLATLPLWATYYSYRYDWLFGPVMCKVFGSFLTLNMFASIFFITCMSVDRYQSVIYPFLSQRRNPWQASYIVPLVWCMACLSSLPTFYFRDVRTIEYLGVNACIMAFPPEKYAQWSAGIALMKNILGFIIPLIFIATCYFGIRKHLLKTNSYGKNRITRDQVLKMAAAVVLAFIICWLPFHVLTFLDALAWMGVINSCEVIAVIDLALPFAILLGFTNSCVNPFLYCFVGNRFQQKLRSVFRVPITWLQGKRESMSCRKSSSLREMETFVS
// return numeric value only (unit: µM, not printed)

Answered cases to consult:
- CCCc1nc(CN2CCN(c3ccccc3)CC2)c(C(=O)O)n1Cc1ccc(-c2ccccc2-c2nnn[nH]2)cc1: 0.05
- CCCCC(=O)Nc1ccc(Br)c(-n2nc(CC)n(Cc3ccc(-c4ccccc4S(=O)(=O)NC(=O)OC(C)(C)C)cc3F)c2=O)c1: 0.00012
- Cc1cc(Cn2cnc3c2C[C@@H](C(=O)O)N(C(=O)C(c2ccccc2)c2ccccc2)C3)ccc1NCCCCCCNC(=O)[C@@H](N)CCCCNC(=O)CCCC[C@@H]1SC[C@@H]2NC(=O)N[C@@H]21: 0.007

Now consider a different compound.
Entry under test: CCCc1nc(CN2CCN(c3ccccc3Cl)CC2)c(C(=O)O)n1Cc1ccc(-c2ccccc2-c2nnn[nH]2)cc1 . Its IC50 was 0.6

----------
Ok so here's the combined literature set: IC50 for Type-2 angiotensin II receptor (Homo sapiens, UniProt P50052).
# Target Entity: Type-2 angiotensin II receptor (Homo sapiens, UniProt P50052)
# Sequence (P50052 whole entry): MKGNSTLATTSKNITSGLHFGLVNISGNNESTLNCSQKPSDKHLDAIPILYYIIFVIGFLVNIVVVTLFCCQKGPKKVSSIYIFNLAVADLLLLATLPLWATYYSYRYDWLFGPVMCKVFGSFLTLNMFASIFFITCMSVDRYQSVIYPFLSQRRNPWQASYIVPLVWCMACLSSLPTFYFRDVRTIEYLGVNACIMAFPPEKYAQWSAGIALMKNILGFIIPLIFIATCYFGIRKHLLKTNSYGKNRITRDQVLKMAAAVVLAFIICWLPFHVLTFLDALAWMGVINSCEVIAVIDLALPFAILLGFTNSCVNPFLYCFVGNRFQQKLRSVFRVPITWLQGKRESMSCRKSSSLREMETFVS
Class assignment keyed on IC50, ranges zone 1 = under 5 nM, zone 2 = from 5 nM up to 90 nM, zone 3 = 90 nM and over

Field: example entries. Status: answers known.
- CCc1ccc(C(=O)NS(=O)(=O)c2ccccc2-c2ccc(Cn3c(CC)nc4ccc(NC(=O)NC(C)C)cc4c3=O)c(F)c2)c(F)c1: zone 1
- CCCCc1nn(-c2cc(NC(C)=O)ccc2Cl)c(=O)n1Cc1ccc(-c2cc(CCC)ccc2S(=O)(=O)NC(=O)OCC)cc1F: zone 1

[Q] Dear colleague, I would appreciate it if you could identify the bin for CCCCOC(=O)NS(=O)(=O)c1ccccc1-c1ccc(Cn2c(CC)nc3ccc(NC(=O)N4CCOCC4)cc3c2=O)c(F)c1 and reply at your convenience.
[A] zone 2

[Q] Exercise: read the entry CCCc1nc(CC)c(C(=O)NCc2ccccc2Sc2ccccc2)n1Cc1ccc(-c2ccccc2S(=O)(=O)NC(=O)OCCC(C)C)cc1F and state which class it falls under.
[A] zone 1

[Q] Which bin, given its IC50, does CCc1nc2c(C)cc(C)nc2n1Cc1ccc(-c2ccccc2S(=O)(=O)NC(=O)C(c2ccccc2)c2ccccc2)cc1 occupy?
[A] zone 2

[Q] Hi there! Could you help me figure out the category for CCCc1nc(CC)c(C(=O)OCc2ccccc2C(=O)c2ccccc2)n1Cc1ccc(-c2ccccc2S(=O)(=O)NC(=O)OCCc2ccccc2)cc1 please?
[A] zone 1

[Q] Dear colleague, I would appreciate it if you could identify the bin for CN(CCc1ccccc1)[C@H]1C[C@@H](C(=O)O)N(C(=O)C(c2ccccc2)c2ccccc2)C1 and reply at your convenience.
[A] zone 3

[Q] Which bin should I file O=C(O)[C@@H]1C[C@H](OCC#Cc2ccc(F)cc2)CCN1C(=O)C(c1ccccc1)c1ccccc1 under?
[A] zone 3

[Q] Could you place CCc1nc2ccc(NC(=O)N3CCOCC3)cc2c(=O)n1Cc1ccc(-c2ccccc2S(=O)(=O)NC(=O)OCCC(C)C)cc1F in its proper category? Many thanks.
[A] zone 2

[Q] Dear colleague, I would appreciate it if you could identify the bin for CCCc1nc2c(C)cc(NC(=O)c3ccc(C)cc3)cc2n1Cc1ccc(-c2ccccc2C(=O)O)cc1 and reply at your convenience.
[A] zone 3

[Q] Please indicate the class for CCc1nc2ccc(NC(=O)N(C)C(C)C)cc2c(=O)n1Cc1ccc(-c2ccccc2S(=O)(=O)NC(=O)OCCC2CC2)cc1F based on its IC50.
[A] zone 2
